- Assayed System: T1, PfCSP central repeat peptide NANP_(20aa) (Plasmodium falciparum (repeat peptide, …))
- T1 chain: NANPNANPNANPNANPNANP
- Protocol: SPR
Assay Readout: binding result

>>> val("mAb 0786 with H.N56 reverted to the GL Tyr (antibody, V domains shown) VH: EVQLVESGGGLVQPGRSLRLSCTTSGFTFGDFAMSWVRQAPGKGLEWVGFIRSKAYGGSTEYAASVKGRFTISRDDSKSIAYLQMDSLKTEDTAVYYCCRVWIQLWPLDYWGQGTLVTVSS VL: EIVLTQSPGTLSLSPGERATLSCRASQSIGSSYLAWYQLKPGQAPRLLIYGASSRATGIPDRFSGSGSGTDFTLIISRLEPEDFAVYFCQQYGRSPWTFGQGTKVEIK")
"binds"
